# assayProtocol: Novel Modifiers of Survival Motor Neuron (SMN) Protein: Gene Identification via Genome-wide siRNA Screen;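 note: luminescence tracks full-length SMN protein made from the SMN2 reporter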
# conditionSet: HEK293T SMN2-luciferase reporter, siRNA knockdown, 72 h; actives lie on both sides
The campaign covered roughly 31,000 sequences. About 1,400 (4.5%) were called active.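 Rule for the calls: active = median seed-adjusted z-score above 1 or below -1; inactive = the rest.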 The full list was thinned out, with actives kept by preference.
Please reply with one of these outcomes: active, inactive

Exam item: Assay outcome for CAAUCAGCAGAGUUACAUUTT against CPEB3 : what was it?
Marked response: inactive

Exam item: Field entry: GGAAGGAGCUGUCACGCAATT against MED26
Marked response: active

Exam item: Field entry: CCAUUUGAGGUGAACCGUATT against RFWD3
Marked response: inactive

Exam item: Field entry: GGACAACAACUGAAAUGUATT against ZIM3
Marked response: inactive

Exam item: Field entry: GGACGGAAGAUUUUCGUAUTT against SR140
Marked response: active

Exam item: Field entry: GCAUAAGAGGGAAUUCACATT against TAGLN
Marked response: inactive

Exam item: Field entry: GACUCUGAAUGCUUGCUGUTT against MMS19
Marked response: inactive

Exam item: Field entry: UCAACCCUCUGAUAGAAGATT against EID2
Marked response: active

Exam item: Field entry: AGAUAGAAGGGACACCAUUTT against NDUFB3
Marked response: inactive

Exam item: Field entry: GAACUGUGCUGAUGUGAAATT against PATE1
Marked response: active

Exam item: Field entry: GCUCCGAAGUGUUUACAAUTT against DQX1
Marked response: inactive

Exam item: Field entry: GGCUCCUUAUAUGACUAUUTT against ACVR1C
Marked response: inactive

###

# assayProtocol: Novel Modifiers of Survival Motor Neuron (SMN) Protein: Gene Identification via Genome-wide siRNA Screen;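 note: luminescence tracks full-length SMN protein made from the SMN2 reporter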
# conditionSet: HEK293T SMN2-luciferase reporter, siRNA knockdown, 72 h; actives lie on both sides
The campaign covered roughly 31,000 sequences. About 1,400 (4.5%) were called active. The sample as a whole holds a higher share of actives than the screen did.
Give median seed-adjusted z-score for every item shown.
Simply state the number, no unit and no words.

Exam item: Consider the sequence GAGUCAACAAUGGACAUUUTT against KLHL1 and give its measured median seed-adjusted z-score.
Marked response: 0.067

Exam item: Field entry: GCUGAGCUCAGUAACCACATT against LCAT
Marked response: 0.526

Exam item: Field entry: GCUCCAGUCUCACUAAACATT against ZNF552
Marked response: 0.437

Exam item: Field entry: GAACCGACAAAAGUAGAUATT against RARB
Marked response: 0.409

Exam item: Field entry: CCUUAGAUCUCGCGAAGAATT against DCT
Marked response: -0.184

Exam item: Field entry: GCAAAUACGUGUAGACCUATT against EXOSC9
Marked response: -0.00796

###

# assayProtocol: Novel Modifiers of Survival Motor Neuron (SMN) Protein: Gene Identification via Genome-wide siRNA Screen;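 note: luminescence tracks full-length SMN protein made from the SMN2 reporter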
# conditionSet: HEK293T SMN2-luciferase reporter, siRNA knockdown, 72 h; actives lie on both sides
Screen size: about 31,000 sequences; about 1,400 (4.5%) were called active. The entries come from a sample that favours actives as a whole.
measurementType: median seed-adjusted z-score
Simply state the number, no unit and no words.

Exam item: Consider the sequence GGACGGCUUUCUGCAAAGATT against GLRA2 and give its measured median seed-adjusted z-score.
Marked response: -0.927

Exam item: Field entry: AGUACAUCGCGGAUCUGUATT against RCN3
Marked response: -2.44

Exam item: Field entry: GGACAAGGGAUUAAUAGUATT against ARID1A
Marked response: -1.14

Exam item: Field entry: GGACCGUGUUCUUUACGUATT against NDUFAB1
Marked response: -0.282

Exam item: Field entry: CAAGAAUCUUAAGAUAGAATT against CD4
Marked response: -0.566

Exam item: Field entry: CCUACGUUACUUUCCCUCATT against FOXD4L6
Marked response: -0.137

Exam item: Field entry: GCUCAACUCUUAUUAGUCATT against ZNF485
Marked response: 0.445

Exam item: Field entry: GAUCCUAUCUUACUAACCATT against IL7R
Marked response: 0

Exam item: Field entry: GGAUGAAAAAUACCGGUGUTT against UGT8
Marked response: 0

Exam item: Field entry: AGGUUUGGCUCAACUCUGATT against P2RX2
Marked response: 0.0454

Exam item: Field entry: CCCUUAAUUUUGUAACAGATT against SLC7A6
Marked response: -0.0877

Exam item: Field entry: GCAUGACCGCUUAUCCCAATT against SLC6A5
Marked response: -0.204

Exam item: Field entry: GCUCAAUUGUCGAUCUUUATT against ERO1LB
Marked response: 0.565

Exam item: Field entry: CCAGUGUCAUAAACCUGUATT against NUDT4
Marked response: -0.0306

Exam item: Field entry: UCUUAUUUAUUCUACAUCCTT against TNFRSF6B
Marked response: 0.0458

Exam item: Field entry: GGAGCAAAACAGAUCUUGATT against PINX1
Marked response: 0.11

Exam item: Field entry: CAAGCUUGUUAACAUCAAATT against NPVF
Marked response: 0.588

Exam item: Field entry: CCUCGACAGUGAAUGCAAATT against ABCF3
Marked response: 0.0759

Exam item: Field entry: CAUGAAUCCUUUACAGCAATT against RALB
Marked response: -0.534

Exam item: Field entry: CGAUAGUGAGUAUAUCAGUTT against ZMYND8
Marked response: -0.065

Exam item: Field entry: GCAGAUCUCAUGUCCUCUATT against FPGS
Marked response: -0.853

Exam item: Field entry: ACAACUUCAUAUCCAGCUUTT against ISLR2
Marked response: 0.263

Exam item: Field entry: UACUGUCUCUAGUCUUUUUTT against SEC11B
Marked response: 1.04

Exam item: Field entry: CUCUGAUUAUCAUGAGAUATT against SRGAP2
Marked response: 0.0323

Exam item: Field entry: GGAUCACGCAGCUCAAGAUTT against TBX1
Marked response: -0.744

Exam item: Field entry: GCAAGUGUUUUGAUCAAAATT against ZNF662
Marked response: 0.352

Exam item: Field entry: GGAGGAGCCUAAGAUGUCATT against ZNF442
Marked response: 1.06

Exam item: Field entry: CCACCAAUCACGAACCUAATT against IL3RA
Marked response: -0.951

Exam item: Field entry: GGCUUUUAGAGUACGACAATT against ZFP30
Marked response: 0.211

Exam item: Field entry: GAUAAUGGAAGGUGAAUUUTT against PMS2L3
Marked response: 0.175

Exam item: Field entry: GCAUGAGUGCUAUCAGAUATT against PIPOX
Marked response: 1.06

Exam item: Field entry: ACAUCAUGAGGAAUGCUAUTT against UCP3
Marked response: 1.23

Exam item: Field entry: CGUGUUCCGAGAAAACGAATT against PLEKHM2
Marked response: 0.593

Exam item: Field entry: GAAGAGAACUUCUGCCGUATT against MST1
Marked response: -1.47

Exam item: Field entry: GCUCCAAAUUGGUUGUAUUTT against PRKAG1
Marked response: 0.431

Exam item: Field entry: GGAAGAAAUUAGCUAAAAATT against MKI67IP
Marked response: 0.426

Exam item: Field entry: GGAGGAAACUUCAACUUGUTT against PHF20L1
Marked response: 0

Exam item: Field entry: CAACAUUCAUGGACGGGAATT against SLC2A7
Marked response: -0.0337

Exam item: Field entry: GGAUAUAACGAGAAUGUCUTT against MED27
Marked response: -1.62

Exam item: Field entry: CAAUGUUUACUACAAUGAATT against TUBB2B
Marked response: 0.935

Exam item: Field entry: GUACCUCAAUUUAAUAUCUTT against UGCGL2
Marked response: -0.456

Exam item: Field entry: GCAGAAUAACCUCCAGUAUTT against SLC35A2
Marked response: 1.06

Exam item: Field entry: GCGAAAUUUUGGAUAUCAATT against KIF23
Marked response: -0.449

Exam item: Field entry: GACUGACGAUGACACGGAATT against KPNA6
Marked response: -1.54

Exam item: Field entry: CUUGUCAAGUACGACCUUATT against NINJ1
Marked response: -0.061

Exam item: Field entry: GGAAAUUAGAUACCGAGGATT against SLC25A30
Marked response: 0

Exam item: Field entry: GGAUACUCUUCCUAUUCAATT against OMA1
Marked response: 0

Exam item: Field entry: GCAAAACACCAGAACGAGATT against TESSP2
Marked response: 0.419

Exam item: Field entry: GGGUUGGUUUGGGCCUGAATT against SOX12
Marked response: 0.478

Exam item: Field entry: CCUCGGAAGAGAUCACUAUTT against POU2F1
Marked response: 0.317
